# Method Summary: Cytotoxicity against human CCRF-CEM cells assessed as cell growth inhibition
# Assay type: toxicity, cell-based
Property Measured: log10 IC50 (log10 of the value in µM)
Please interpret these as log10 of IC50 where IC50 is in µM.

Suppose we examine the compound CCOC(=O)[C@H](Cc1ccccc1)NP(=O)(CCN(CCO)CCn1cc(-c2ccc(OC)cc2)c2c(N)ncnc21)N[C@@H](Cc1ccccc1)C(=O)OCC ; what log10 IC50 value has been reported?
0.79

Suppose we examine the compound CCOC(=O)[C@H](Cc1ccccc1)NP(=O)(CCN(CCn1cc(-c2ccc(OC)cc2)c2c(N)ncnc21)CCP(=O)(N[C@@H](Cc1ccccc1)C(=O)OCC)N[C@@H](Cc1ccccc1)C(=O)OCC)N[C@@H](Cc1ccccc1)C(=O)OCC ; what log10 IC50 value has been reported?
0.60

Suppose we examine the compound CCOC(=O)[C@H](Cc1ccccc1)NP(=O)(CCN(CCn1cc(-c2ccccc2)c2c(N)ncnc21)CCP(=O)(N[C@@H](Cc1ccccc1)C(=O)OCC)N[C@@H](Cc1ccccc1)C(=O)OCC)N[C@@H](Cc1ccccc1)C(=O)OCC ; what log10 IC50 value has been reported?
0.58

Suppose we examine the compound Nc1ncnc2c1ccn2[C@@H]1O[C@H](CO)[C@@H](O)[C@H]1O ; what log10 IC50 value has been reported?
-0.96

Suppose we examine the compound CCOC(=O)[C@H](Cc1ccccc1)NP(=O)(CCN(CC#N)CCn1cc(-c2ccc(OC)cc2)c2c(N)ncnc21)N[C@@H](Cc1ccccc1)C(=O)OCC ; what log10 IC50 value has been reported?
0.62

Suppose we examine the compound CCOC(=O)[C@H](Cc1ccccc1)NP(=O)(CCN(CCO)CCn1cc(-c2ccccc2)c2c(N)ncnc21)N[C@@H](Cc1ccccc1)C(=O)OCC ; what log10 IC50 value has been reported?
0.83

Suppose we examine the compound CCOC(=O)[C@H](Cc1ccccc1)NP(=O)(CCN(CCC#N)CCn1cc(-c2ccccc2)c2c(N)ncnc21)N[C@@H](Cc1ccccc1)C(=O)OCC ; what log10 IC50 value has been reported?
0.75

Suppose we examine the compound CCOC(=O)[C@H](Cc1ccccc1)NP(=O)(CCN(CC#N)CCn1cc(-c2ccccc2)c2c(N)ncnc21)N[C@@H](Cc1ccccc1)C(=O)OCC ; what log10 IC50 value has been reported?
0.77

* * *

Hi there, I'd appreciate the recorded pEC50 for every entry that follows.
# System: Trypanosoma brucei brucei
# Method Summary: Antitrypanosomal activity against Trypanosoma brucei brucei assessed as reduction in parasite growth by cell-based assay
# Format: functional, organism-based
Recall that pEC50 is obtained by taking minus log10 of the concentration measured in molar.

Suppose we examine the molecule CCOC(=O)[C@H](Cc1ccccc1)NP(=O)(CCN(CCC#N)CCn1cc(-c2ccccc2)c2c(N)ncnc21)N[C@@H](Cc1ccccc1)C(=O)OCC ; what pEC50 value has been reported?
5.38

Suppose we examine the molecule CCOC(=O)[C@H](Cc1ccccc1)NP(=O)(CCN(CC#N)CCn1cc(-c2ccccc2)c2c(N)ncnc21)N[C@@H](Cc1ccccc1)C(=O)OCC ; what pEC50 value has been reported?
5.79

Suppose we examine the molecule CCOC(=O)[C@H](Cc1ccccc1)NP(=O)(CCN(CCC#N)CCn1cc(-c2ccc(OC)cc2)c2c(N)ncnc21)N[C@@H](Cc1ccccc1)C(=O)OCC ; what pEC50 value has been reported?
5.17

* * *

Hi there, I'd appreciate the recorded IC50 for every entry that follows.
# Method Summary: Cytotoxicity against human HeLa S3 cells assessed as cell growth inhibition
# Type: toxicity, cell-based

Suppose we examine the molecule CCOC(=O)[C@H](Cc1ccccc1)NP(=O)(CCN(CCC#N)CCn1cc(-c2ccc(OC)cc2)c2c(N)ncnc21)N[C@@H](Cc1ccccc1)C(=O)OCC ; what IC50 value has been reported?
> 20 µM

Suppose we examine the molecule Nc1ncnc2c1ccn2[C@@H]1O[C@H](CO)[C@@H](O)[C@H]1O ; what IC50 value has been reported?
0.1 µM

Suppose we examine the molecule CCOC(=O)[C@H](Cc1ccccc1)NP(=O)(CCN(CCC#N)CCn1cc(-c2ccccc2)c2c(N)ncnc21)N[C@@H](Cc1ccccc1)C(=O)OCC ; what IC50 value has been reported?
> 20 µM

Suppose we examine the molecule CCOC(=O)[C@H](Cc1ccccc1)NP(=O)(CCN(CC#N)CCn1cc(-c2ccc(OC)cc2)c2c(N)ncnc21)N[C@@H](Cc1ccccc1)C(=O)OCC ; what IC50 value has been reported?
> 20 µM

Suppose we examine the molecule CCOC(=O)[C@H](Cc1ccccc1)NP(=O)(CCN(CCO)CCn1cc(-c2ccccc2)c2c(N)ncnc21)N[C@@H](Cc1ccccc1)C(=O)OCC ; what IC50 value has been reported?
> 20 µM

Suppose we examine the molecule CCOC(=O)[C@H](Cc1ccccc1)NP(=O)(CCN(CCO)CCn1cc(-c2ccc(OC)cc2)c2c(N)ncnc21)N[C@@H](Cc1ccccc1)C(=O)OCC ; what IC50 value has been reported?
> 20 µM

* * *

# Method Summary: Cytotoxicity against human HeLa S3 cells assessed as cell growth inhibition
# Type: toxicity, cell-based
Property Measured: IC50 (µM)
Give a bare numeral; the unit µM is implied.

Suppose we examine the compound CCOC(=O)[C@H](Cc1ccccc1)NP(=O)(CCN(CC#N)CCn1cc(-c2ccccc2)c2c(N)ncnc21)N[C@@H](Cc1ccccc1)C(=O)OCC ; what IC50 value has been reported?
11

Suppose we examine the compound CCOC(=O)[C@H](Cc1ccccc1)NP(=O)(CCN(CCn1cc(-c2ccc(OC)cc2)c2c(N)ncnc21)CCP(=O)(N[C@@H](Cc1ccccc1)C(=O)OCC)N[C@@H](Cc1ccccc1)C(=O)OCC)N[C@@H](Cc1ccccc1)C(=O)OCC ; what IC50 value has been reported?
5.4

Suppose we examine the compound CCOC(=O)[C@H](Cc1ccccc1)NP(=O)(CCN(CCn1cc(-c2ccccc2)c2c(N)ncnc21)CCP(=O)(N[C@@H](Cc1ccccc1)C(=O)OCC)N[C@@H](Cc1ccccc1)C(=O)OCC)N[C@@H](Cc1ccccc1)C(=O)OCC ; what IC50 value has been reported?
4.9

* * *

# Method Summary: Cytotoxicity against human HepG2 cells assessed as cell growth inhibition
# Type: toxicity, cell-based
Property Measured: IC50
Answer with the number, then the unit.

Suppose we examine the compound CCOC(=O)[C@H](Cc1ccccc1)NP(=O)(CCN(CCC#N)CCn1cc(-c2ccccc2)c2c(N)ncnc21)N[C@@H](Cc1ccccc1)C(=O)OCC ; what IC50 value has been reported?
14.1 µM

Suppose we examine the compound Nc1ncnc2c1ccn2[C@@H]1O[C@H](CO)[C@@H](O)[C@H]1O ; what IC50 value has been reported?
0.05 µM

Suppose we examine the compound CCOC(=O)[C@H](Cc1ccccc1)NP(=O)(CCN(CCn1cc(-c2ccccc2)c2c(N)ncnc21)CCP(=O)(N[C@@H](Cc1ccccc1)C(=O)OCC)N[C@@H](Cc1ccccc1)C(=O)OCC)N[C@@H](Cc1ccccc1)C(=O)OCC ; what IC50 value has been reported?
6.3 µM

* * *

# Method Summary: Cytotoxicity against human NHDF cells assessed as cell growth inhibition
# Format: toxicity, cell-based
Property Measured: pIC50
Recall that pIC50 is obtained by taking minus log10 of the concentration measured in molar.

Suppose we examine the molecule CCOC(=O)[C@H](Cc1ccccc1)NP(=O)(CCN(CC#N)CCn1cc(-c2ccccc2)c2c(N)ncnc21)N[C@@H](Cc1ccccc1)C(=O)OCC ; what pIC50 value has been reported?
4.98

Suppose we examine the molecule CCOC(=O)[C@H](Cc1ccccc1)NP(=O)(CCN(CCn1cc(-c2ccccc2)c2c(N)ncnc21)CCP(=O)(N[C@@H](Cc1ccccc1)C(=O)OCC)N[C@@H](Cc1ccccc1)C(=O)OCC)N[C@@H](Cc1ccccc1)C(=O)OCC ; what pIC50 value has been reported?
5.05

Suppose we examine the molecule CCOC(=O)[C@H](Cc1ccccc1)NP(=O)(CCN(CCn1cc(-c2ccc(OC)cc2)c2c(N)ncnc21)CCP(=O)(N[C@@H](Cc1ccccc1)C(=O)OCC)N[C@@H](Cc1ccccc1)C(=O)OCC)N[C@@H](Cc1ccccc1)C(=O)OCC ; what pIC50 value has been reported?
5.02

Suppose we examine the molecule CCOC(=O)[C@H](Cc1ccccc1)NP(=O)(CCN(CC#N)CCn1cc(-c2ccc(OC)cc2)c2c(N)ncnc21)N[C@@H](Cc1ccccc1)C(=O)OCC ; what pIC50 value has been reported?
5.10

Suppose we examine the molecule CCOC(=O)[C@H](Cc1ccccc1)NP(=O)(CCN(CCO)CCn1cc(-c2ccccc2)c2c(N)ncnc21)N[C@@H](Cc1ccccc1)C(=O)OCC ; what pIC50 value has been reported?
4.72

Suppose we examine the molecule CCOC(=O)[C@H](Cc1ccccc1)NP(=O)(CCN(CCC#N)CCn1cc(-c2ccc(OC)cc2)c2c(N)ncnc21)N[C@@H](Cc1ccccc1)C(=O)OCC ; what pIC50 value has been reported?
4.79

Suppose we examine the molecule CCOC(=O)[C@H](Cc1ccccc1)NP(=O)(CCN(CCO)CCn1cc(-c2ccc(OC)cc2)c2c(N)ncnc21)N[C@@H](Cc1ccccc1)C(=O)OCC ; what pIC50 value has been reported?
4.88

Suppose we examine the molecule Nc1ncnc2c1ccn2[C@@H]1O[C@H](CO)[C@@H](O)[C@H]1O ; what pIC50 value has been reported?
7.15

Values were extracted from ChEMBL document CHEMBL5338716.
